- PROTOCOL_TEXT: Pharmacokinetic test in mice (IV and PO)
- Assay type: in vivo, BALB/c mice
- PARTICULARS: BALB/c, mouse, plasma; mice, PO 10 mg/kg
For each entry below, report its AUC(0-t) value.
Give bare numbers, in µM·h.

Completed entries (count: 3):
| COMPOUND | UNIT_ABBREV | AUC(0-t) |
| --- | --- | --- |
| CC(F)(F)C(=O)N[C@@H]1CCCC[C@H]1N1Cc2ccc(-c3nnc(C(F)F)o3)cc2S1(=O)=O | µM·h | 45.2 |
| O=C(N[C@H]1[C@H](N2Cc3ccc(-c4nnc(C(F)F)o4)cc3S2(=O)=O)CCCC1(F)F)C(F)F | µM·h | 57 |
| O=S1(=O)c2cc(-c3nnc(C(F)F)o3)ccc2CN1C(c1ccccn1)[C@H](O)c1ccccn1 (stereo partly shown) | µM·h | 50.5 |

Query: Quick one: AUC(0-t) for O=C(N[C@@H]1CCCC[C@H]1N1Cc2ccc(-c3nnc(C(F)F)o3)cc2S1(=O)=O)C(F)F ?
Response: 77.7
